Form: system (human lung cancer strain NCI-H441), quantity (log10 of IC50), values below.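 Further: cell proliferation inhibition after four days measured by CellTiter-Glo.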
Hello, just confirming the data are log10 of IC50 with units of µM.

Some molecules with known log10 of IC50 results, for comparison:
{"molecule": "CCC[C@H]1C(=O)N[C@@H]([C@@H](C)CC)C(=O)N(C2CC2)CC(=O)N(C)[C@H]2C/C=C\\CCN(C2=O)[C@@H](Cc2ccc(C)cc2)C(=O)N(C)CC(=O)N[C@@H](CCc2ccc(Cl)c(Cl)c2)C(=O)N2C[C@H](OCC)C[C@H]2C(=O)NC2(CC(C)(C)C2)C(=O)N(C)[C@@H](CC2CCC2)C(=O)N(C)[C@H](C(=O)N(C)C)CC(=O)N1C [PP2761]", "log10 of IC50": -1.16}
{"molecule": "CC[C@H](C)[C@@H]1NC(=O)[C@H](CC2CCC2)N(C)C(=O)C[C@@H](C(=O)N(C)C)N(C)C(=O)[C@H](C2CCCC2)N(C)C(=O)C2(CCCC2)NC(=O)[C@@H]2CCCN2C(=O)[C@H](CCc2cc(F)c(C(F)(F)F)c(F)c2)NC(=O)CN(C)C(=O)[C@H](Cc2ccc(C(F)(F)F)cc2)N2C[C@H](C)CC[C@@H](C2=O)N(C)C(=O)CN(C)C1=O [PP1386]", "log10 of IC50": -2.38}
{"molecule": "CCO[C@@H]1C[C@H]2C(=O)NC3(CCC3)C(=O)N(C)[C@@H](C3CCCC3)C(=O)N(C)[C@H](C(=O)N(C)C)CC(=O)N(C)[C@@H](CC3CC3)C(=O)N[C@@H]([C@@H](C)CC)C(=O)N(C)CC(=O)N(C)[C@H]3C/C=C\\CCN(C3=O)[C@@H](Cc3ccc(C(F)(F)F)cc3)C(=O)N(C)CC(=O)N[C@@H](CCc3ccc(C(F)(F)F)c(OC)c3)C(=O)N2C1 [PP1247]", "log10 of IC50": -2.19}
{"molecule": "CCCO[C@H](C)[C@@H]1NC(=O)[C@H](CC(C)C)N(C)C(=O)C[C@@H](C(=O)N(C)CC)N(C)C(=O)[C@H](C2CCCC2)N(C)C(=O)C2(CC(C)(C)C2)NC(=O)[C@@H]2C[C@H](C)CN2C(=O)[C@H](CCc2ccc(C(F)(F)F)c(OC)c2)NC(=O)CN(C)C(=O)[C@H](Cc2ccc(C)cc2)N2CC/C=C\\C[C@@H](C2=O)N(C)C(=O)CN(C)C1=O [PP2416]", "log10 of IC50": -1.48}
{"molecule": "CCO[C@@H]1C[C@H]2C(=O)NC3(CCC3)C(=O)N(C)[C@@H](C3CCCC3)C(=O)N(C)[C@H](C)CC(=O)N(C)[C@@H](CC3CCCC3)C(=O)N[C@@H]([C@@H](C)CC)C(=O)N(C)CC(=O)N(C)[C@H]3C/C=C\\CCN(C3=O)[C@@H](Cc3ccc(C)cc3)C(=O)N(C)CC(=O)N[C@@H](CCc3cc(F)c(C(F)(F)F)c(F)c3)C(=O)N2C1 [PP1413]", "log10 of IC50": -1.20}
{"molecule": "CCO[C@@H]1C[C@H]2C(=O)NC3(CCC3)C(=O)N(C)[C@@H](C3CCCC3)C(=O)N(C)[C@H](C(=O)N(C)C)CC(=O)N(C)[C@@H](COC3CC3)C(=O)N[C@@H]([C@@H](C)CC)C(=O)N(C)CC(=O)N(C)[C@H]3C/C=C\\CCN(C3=O)[C@@H](Cc3ccc(C(F)(F)F)cc3)C(=O)N(C)CC(=O)N[C@@H](CCc3cc(F)c(C(F)(F)F)c(F)c3)C(=O)N2C1 [PP1268]", "log10 of IC50": -1.92}
{"molecule": "CC[C@H](C)[C@@H]1NC(=O)[C@H](COC)N(C)C(=O)C[C@@H](C(=O)N(C)C)N(C)C(=O)[C@H](C2CCCCC2)N(C)C(=O)C2(CC(C)(C)C2)NC(=O)[C@@H]2C[C@@H](OC3CCCC3)CN2C(=O)[C@H](CCc2cc(F)c(C(F)(F)F)c(F)c2)NC(=O)CN(C)C(=O)[C@H](Cc2ccc(C(F)(F)F)cc2)N2CC/C=C\\C[C@@H](C2=O)N(C)C(=O)CN(C)C1=O [PP2656]", "log10 of IC50": -1.65}
{"molecule": "CCO[C@@H]1C[C@H]2C(=O)NC3(CCC3)C(=O)N(C)[C@@H](C3CCCC3)C(=O)N(C)[C@H](C(=O)N(C)C)CC(=O)N(C)[C@@H](CC)C(=O)N[C@@H]([C@@H](C)CC)C(=O)N(C)CC(=O)N(C)[C@H]3CCCCCN(C3=O)[C@@H](Cc3ccc(F)cc3Cl)C(=O)N(C)CC(=O)N[C@@H](CCc3cc(F)c(C(F)(F)F)c(F)c3)C(=O)N2C1 [PP0908]", "log10 of IC50": -1.41}

QUERY: Provide value of log10 of IC50 for this record tested with human lung cancer strain NCI-H441: CCO[C@@H]1C[C@H]2C(=O)NC3(CCC3)C(=O)N(C)[C@@H](C(CC)CC)C(=O)N(C)[C@H](C(=O)N(C)C)CC(=O)N(C)[C@@H](CC3CC3)C(=O)N[C@@H]([C@@H](C)CC)C(=O)N(C)CC(=O)N(C)[C@H]3C/C=C\CCN(C3=O)[C@@H](CC3CCCCC3)C(=O)N(C)CC(=O)N[C@@H](CCc3cc(F)c(C(F)(F)F)c(F)c3)C(=O)N2C1 [PP1428]
RESULT: -1.41

QUERY: Find log10 of IC50 (human lung cancer strain NCI-H441) for the entry C#CCN1CC(=O)N(C)[C@H]2C/C=C\CCN(C2=O)[C@@H](Cc2ccc(C)cc2)C(=O)N(C)CC(=O)N[C@@H](CCc2cc(F)c(C(F)(F)F)c(F)c2)C(=O)N2C[C@H](OCC)C[C@H]2C(=O)NC2(CC(C)(C)C2)C(=O)N(C)[C@@H](C2CCCC2)C(=O)N(C)[C@H](C(=O)N(C)C)CC(=O)N(C)[C@@H](CCC)C(=O)N[C@@H](CC(C)C)C1=O [PP2512]
RESULT: -0.96

QUERY: Provide the documented log10 of IC50 with human lung cancer strain NCI-H441 as the system for CC[C@H](C)[C@@H]1NC(=O)[C@H](COC)N(C)C(=O)C[C@@H](C(=O)N2CCCCC2)N(C)C(=O)[C@H](C2CCCC2)N(C)C(=O)C2(CC(C)(C)C2)NC(=O)[C@@H]2C[C@@H](OC(C)C)CN2C(=O)[C@H](CCc2ccc(Cl)c(Cl)c2)NC(=O)CN(C)C(=O)[C@H](Cc2ccc(C(F)(F)F)cc2)N2CC/C=C\C[C@@H](C2=O)N(C)C(=O)CN(C)C1=O [PP2671]
RESULT: -1.58

---

system.under.test: GDP-bound KRAS wild-type protein (Homo sapiens, UniProt P01116)
Sequence (P01116 whole entry): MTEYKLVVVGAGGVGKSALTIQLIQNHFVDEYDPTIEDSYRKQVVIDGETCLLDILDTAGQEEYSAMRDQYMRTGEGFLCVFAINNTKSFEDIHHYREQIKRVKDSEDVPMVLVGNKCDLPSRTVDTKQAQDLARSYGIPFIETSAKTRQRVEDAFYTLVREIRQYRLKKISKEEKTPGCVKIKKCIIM
experimental.details: Binding to KRAS by surface plasmon resonance (SPR), Single Cycle Kinetics
recorded.conditions: SPR, Single Cycle Kinetics, GDP-bound KRAS wild-type protein; read-out: KRAS KD
property.name: Kd (nM)
Could you give me the number in nM? Just the number is fine.

Completed entries (count: 5):
{"sample.smiles": "CCC[C@H]1C(=O)N[C@@H]([C@@H](C)CC)C(=O)N2CCC[C@H]2C(=O)N(C)[C@H]2C/C=C\\CCN(C2=O)[C@@H](Cc2ccc(C(F)(F)F)cc2)C(=O)N(C)CC(=O)N[C@@H](CCc2ccc(C(F)(F)F)c(OC)c2)C(=O)N2C[C@H](OCC)C[C@H]2C(=O)N(C)C2(CCC2)C(=O)N(C)[C@@H](C2CCCC2)C(=O)N(C)[C@H](C(=O)N2CCCCC2)CC(=O)N1C", "unit.abbrev": "nM", "Kd": 0.61}
{"sample.smiles": "CCCOC[C@H]1C(=O)N[C@@H]([C@@H](C)CC)C(=O)N(C)CC(=O)N(C)[C@H]2C/C=C\\CCN(C2=O)[C@@H](Cc2ccc(C(F)(F)F)cc2)C(=O)N(C)CC(=O)N[C@@H](CCc2cc(F)c(C(F)(F)F)c(F)c2)C(=O)N2C[C@H](OCC)C[C@H]2C(=O)NC2(CC(C)(C)C2)C(=O)N(C)[C@@H](C2CCCC2)C(=O)N(C)[C@H](C(=O)N(C)CCC)CC(=O)N1C", "unit.abbrev": "nM", "Kd": 0.16}
{"sample.smiles": "CCO[C@@H]1C[C@H]2C(=O)NC3(CCCC3)C(=O)N(C)[C@@H](C3CCCC3)C(=O)N(C)[C@H](C(=O)N(C)C)CC(=O)N(C)[C@@H](CC)C(=O)N[C@@H]([C@@H](C)CC)C(=O)N(C)CC(=O)N(C)[C@H]3C/C=C\\CCN(C3=O)[C@@H](Cc3ccc(C(F)(F)F)cc3)C(=O)N(C)CC(=O)N[C@@H](CCc3cc(C)c(Cl)c(C)c3)C(=O)N2C1", "unit.abbrev": "nM", "Kd": 1}
{"sample.smiles": "CCC[C@H]1C(=O)N[C@@H]([C@@H](C)CC)C(=O)N(C)CC(=O)N(C)[C@H]2C/C=C\\CCN(C2=O)[C@@H](Cc2ccc(C)cc2)C(=O)N(C)CC(=O)N[C@@H](CCc2ccc(C(F)(F)F)c(OC)c2)C(=O)N2C[C@H](OCC)C[C@H]2C(=O)NC2(CC(C)(C)C2)C(=O)N(C)[C@@H](C2CCCC2)C(=O)N(C)[C@H](C(=O)N(C)C)CC(=O)N1C", "unit.abbrev": "nM", "Kd": 0.074}
{"sample.smiles": "CCO[C@@H]1C[C@H]2C(=O)NC3(CCC3)C(=O)N(C)[C@@H](C3CCCC3)C(=O)N(C)[C@H](C(=O)N(C)C)CC(=O)N(C)[C@@H](Cc3ccccc3)C(=O)N[C@@H]([C@@H](C)CC)C(=O)N(C)CC(=O)N(C)[C@H]3CCCCCN(C3=O)[C@@H](Cc3ccc(F)cc3)C(=O)N(C)CC(=O)N[C@@H](CCc3cc(F)c(C(F)(F)F)c(F)c3)C(=O)N2C1", "unit.abbrev": "nM", "Kd": 0.074}

Moving on to the next molecule.
QUERY: For the molecule shown here, `CC[C@H](C)[C@@H]1NC(=O)[C@H](CC)N(C)C(=O)C[C@@H](C(=O)N(C)C)N(C)C(=O)[C@H](C2CCCC2)N(C)C(=O)C2(CCC2)NC(=O)[C@H](COCCC(C)C)N(C)C(=O)[C@H](CCc2cc(F)c(C(F)(F)F)c(F)c2)NC(=O)CN(C)C(=O)[C@H](Cc2ccc(C(F)(F)F)cc2)N2CC/C=C\C[C@@H](C2=O)N(C)C(=O)CN(C)C1=O` , give the reported Kd.
RESULT: 1.2
